Recorded values, source patent US12692247B2.

test_system: Recombinant human DDR1 (Homo sapiens)
Construct: Recombinant human DDR1 (2.5 nM; aa440-876 containing a GST tag)
Sequence (Q08345 440-876 isoform Q08345-2): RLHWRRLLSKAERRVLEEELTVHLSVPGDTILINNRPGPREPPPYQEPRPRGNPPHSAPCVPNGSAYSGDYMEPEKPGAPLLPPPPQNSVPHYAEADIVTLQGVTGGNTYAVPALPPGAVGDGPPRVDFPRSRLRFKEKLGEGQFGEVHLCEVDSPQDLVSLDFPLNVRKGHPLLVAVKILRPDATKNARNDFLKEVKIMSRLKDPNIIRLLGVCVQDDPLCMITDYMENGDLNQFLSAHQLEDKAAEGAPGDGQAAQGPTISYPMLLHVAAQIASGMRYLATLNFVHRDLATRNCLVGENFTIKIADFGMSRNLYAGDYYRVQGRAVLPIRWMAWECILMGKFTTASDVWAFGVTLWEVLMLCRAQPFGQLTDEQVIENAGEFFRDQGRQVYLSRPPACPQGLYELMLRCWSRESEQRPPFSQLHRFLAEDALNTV
protocol_description: LanthaScreen Eu Kinase Binding Assay, DDR1
condition_info: recombinant human DDR1 (2.5 nM; aa440-876, GST tag), Kinase Tracer 178 5 nM, time-resolved fluorescence, at least two independent replicates; read-out: DDR1 pIC50 (converted)
Consider the following compounds and their measured IC50 readings.

Example entries begin here.
[[record]]
mol_smiles = "Cn1ncc2cc(Nc3cccc4ccn(CC(=O)Nc5cccc(C(C)(C)O)c5)c(=O)c34)ccc21"
test_system = "Recombinant human DDR1 (Homo sapiens)"
endpoint = "IC50"
result = "< 10 nM"

[[record]]
mol_smiles = "Cn1ncc2cc(Nc3cccc4ccn(CC(=O)NCC(C)(C)O)c(=O)c34)ccc21"
test_system = "Recombinant human DDR1 (Homo sapiens)"
endpoint = "IC50"
result = "100 to 1000 nM"

[[record]]
mol_smiles = "Cn1ncc2cc(Nc3cccc4ccn(CC(=O)NCC56CCCN5CCC6)c(=O)c34)ccc21"
test_system = "Recombinant human DDR1 (Homo sapiens)"
endpoint = "IC50"
result = "≥ 1000 nM"

[[record]]
mol_smiles = "Cn1cc(NC(=O)Cn2ccc3cccc(Nc4ccc5c(cnn5C)c4)c3c2=O)cn1"
test_system = "Recombinant human DDR1 (Homo sapiens)"
endpoint = "IC50"
result = "100 to 1000 nM"


Exam item: Complete the entry with IC50 for Cn1ncc2cc(Nc3cccc4ccn(CC(=O)NC5(C(F)(F)F)CCCC5)c(=O)c34)ccc21
Marked response: 10 to 100 nM

Exam item: Complete the entry with IC50 for Cn1ncc2cc(Nc3cccc4ccn(CC(=O)N5C6CCC5COC6)c(=O)c34)ccc21
Marked response: 100 to 1000 nM

Exam item: Complete the entry with IC50 for Cn1ncc2cc(Nc3cccc4ccn(CC(=O)NCC(F)(F)F)c(=O)c34)cc(C#N)c21
Marked response: < 10 nM

Exam item: Complete the entry with IC50 for Cn1ncc2cc(Nc3cccc4ccn(CC(=O)N5CCOCC5)c(=O)c34)ccc21
Marked response: 100 to 1000 nM

Exam item: Complete the entry with IC50 for Cn1ncc2cc(Nc3cccc4ccn(CC(=O)Nc5ccc(C(F)(F)F)nc5)c(=O)c34)ccc21
Marked response: 10 to 100 nM

Exam item: Complete the entry with IC50 for CC(C)CNC(=O)Cn1ccc2cccc(Nc3ccc4c(cnn4C)c3)c2c1=O
Marked response: 10 to 100 nM

Exam item: Complete the entry with IC50 for Cn1ncc2cc(Nc3cccc4ccn(CC(=O)NC5CC5)c(=O)c34)ccc21
Marked response: 100 to 1000 nM

Exam item: Complete the entry with IC50 for C[C@@H]1COC[C@H](C)N1C(=O)Cn1ccc2cccc(Nc3ccc4c(cnn4C)c3)c2c1=O
Marked response: 100 to 1000 nM

Exam item: Complete the entry with IC50 for Cn1ncc2cc(Nc3cccc4ccn(CC(=O)Nc5cccc(C(C)(C)N)c5)c(=O)c34)ccc21
Marked response: < 10 nM

Exam item: Complete the entry with IC50 for Cn1ncc2cc(Nc3cccc4ccn(CC(=O)N5CCC[C@H]5C(C)(C)O)c(=O)c34)ccc21
Marked response: 100 to 1000 nM

Exam item: Complete the entry with IC50 for C[C@@H](NC(=O)Cn1ccc2cccc(Nc3ccc4c(cnn4C)c3)c2c1=O)C(F)(F)F
Marked response: 100 to 1000 nM
